test: Antitumor activity against Homo sapiens (human) LN229 cells assessed as inhibition of cell viability after 72 hr by MTT assay; format: functional, cell-based; conditions: LN-229, 72 h
observable: IC50
Enter the number, and then the unit.

CCCCNc1cc(-c2ccccc2)nc2cc(OC)cc(OC)c12 | 3.92 µM
CCCNc1cc(-c2ccccc2)nc2cc(OC)cc(OC)c12 | 1.82 µM

Q) Which measured IC50 value corresponds to COc1cc(OC)c2c(Nc3ccccc3)cc(-c3ccccc3)nc2c1 ?
A) 5.9 µM

* * *

experiment: Antitumor activity against Homo sapiens (human) LN229 cells assessed as inhibition of cell viability after 72 hr by MTT assay; type: functional, cell-based; conditions: LN-229, 72 h
observable: IC50 (µM)
Give just the numeric value; µM need not be written.

Past entries and their recorded results:
COc1cc(OC)c2c(NC3CCCCC3)cc(-c3ccccc3)nc2c1 | 6.08
COc1cc(OC)c2c(NCc3ccccc3)cc(-c3ccccc3)nc2c1 | 7.15
COc1cc(OC)c2c(N3CCN(C)CC3)cc(-c3ccccc3)nc2c1 | 1.75
COc1cc(OC)c2c(-n3ccnc3)cc(-c3ccccc3)nc2c1 | 55.3

Consider the additional compound presented here.
Q) Which measured IC50 value corresponds to COc1cc(OC)c2c(N3CCCCC3)cc(-c3ccccc3)nc2c1 ?
A) 66

* * *

tested on: HEK293; assay: Cytotoxicity against Homo sapiens (human) HEK293 cells assessed as inhibition of cell viability after 72 hr by MTT assay; assay type: cell-based; conditions: HEK293, 72 h
pIC50: −log10 of the molar value.
Decide using pIC50: a value greater than or equal to 5 is TRUE, a smaller one is FALSE.

As a guide, the following entries are already answered.
CCCCNc1cc(-c2ccccc2)nc2cc(OC)cc(OC)c12 | TRUE
COc1cc(OC)c2c(N3CCN(C)CC3)cc(-c3ccccc3)nc2c1 | TRUE
COc1cc(OC)c2c(N3CCCCC3)cc(-c3ccccc3)nc2c1 | FALSE
COc1cc(OC)c2c(N3CCOCC3)cc(-c3ccccc3)nc2c1 | FALSE

Alright, here's another compound for you.
Q) Is pIC50 at least 5? Consider CCCNc1cc(-c2ccccc2)nc2cc(OC)cc(OC)c12
A) TRUE

* * *

system: DU-145; experiment: Antitumor activity against Homo sapiens (human) DU145 cells assessed as inhibition of cell viability after 72 hr by MTT assay; format: functional, cell-based; details: DU-145, 72 h
So basically, if IC50 comes in under 10 µM it's label 1, and if it's 10 µM or more it's label 0.

COc1cc(OC)c2c(NC3CCCCC3)cc(-c3ccccc3)nc2c1 | label 1
COc1cc(OC)c2c(N3CCN(C)CC3)cc(-c3ccccc3)nc2c1 | label 0
COc1cc(OC)c2c(-n3ccnc3)cc(-c3ccccc3)nc2c1 | label 0
O=c1[nH]cc(F)c(=O)[nH]1 [FLUOROURACIL] | label 1
COc1cc(OC)c2c(N3CCCCC3)cc(-c3ccccc3)nc2c1 | label 0

Q) Given COc1cc(OC)c2c(N3CCOCC3)cc(-c3ccccc3)nc2c1 , is recorded IC50 strictly lower than 10 µM?
A) label 0

Q) What about this compound? CCCCNc1cc(-c2ccccc2)nc2cc(OC)cc(OC)c12
A) label 1

Q) What about this compound? COc1cc(OC)c2c(Nc3ccccc3)cc(-c3ccccc3)nc2c1
A) label 0
